Values compiled from paper PMC10397247.

Molecular target: T1, P2-AA-1HGe-Q
T1 chain: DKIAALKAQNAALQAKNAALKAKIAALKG
Experiment: two-hybrid library CCmax;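 note: natural log of median RNA to DNA barcode read ratio; higher means stronger binding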
Conditions: mean of both orientations
# Lookup of reported interaction score keyed by entry
reported-metric: interaction score

binder	reported-metric	readout-value
DEIAALEAANAALAAENAALEAEIAALEG [P1-AA-1HGe-A]	interaction score	1.88
DEIAALEADNAALDAENAALEAEIAALEG [P1-AA-1HGe-D]	interaction score	2.03
DEIAALEAWNAALWAENAALEAEIAALEG [P1-AA-1HGe-W]	interaction score	1.87
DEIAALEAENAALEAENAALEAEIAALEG [P1-AA]	interaction score	1.97
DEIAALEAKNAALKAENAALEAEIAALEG [4H465-AA]	interaction score	1.82
DEIAALEAQNAALQAENAALEAEIAALEG [P1-AA-1HGe-Q]	interaction score	2.11
DEIAALEARNAALRAENAALEAEIAALEG [P1-AA-1HGe-R]	interaction score	2.26
DEIAALEAMNAALMAENAALEAEIAALEG [P1-AA-1HGe-M]	interaction score	1.9
DEIAALEAHNAALHAENAALEAEIAALEG [P1-AA-1HGe-H]	interaction score	2.16
DEIAALEAYNAALYAENAALEAEIAALEG [P1-AA-1HGe-Y]	interaction score	1.96
DEIAALEATNAALTAENAALEAEIAALEG [P1-AA-1HGe-T]	interaction score	2.05
DEIAALEASNAALSAENAALEAEIAALEG [P1-AA-1HGe-S]	interaction score	2.06
